Reference source for all entries: patent US5159081A

# TARGET_DESC: mu receptor (Rattus norvegicus)
# Construct: The brain tissue, rat whole brain minus cerebellum for mu was homogenized; from tissue; host or cells: brain minus cerebellum of male Sprague Dawley rats, homogenate fraction
# Sequence (P33535 whole entry): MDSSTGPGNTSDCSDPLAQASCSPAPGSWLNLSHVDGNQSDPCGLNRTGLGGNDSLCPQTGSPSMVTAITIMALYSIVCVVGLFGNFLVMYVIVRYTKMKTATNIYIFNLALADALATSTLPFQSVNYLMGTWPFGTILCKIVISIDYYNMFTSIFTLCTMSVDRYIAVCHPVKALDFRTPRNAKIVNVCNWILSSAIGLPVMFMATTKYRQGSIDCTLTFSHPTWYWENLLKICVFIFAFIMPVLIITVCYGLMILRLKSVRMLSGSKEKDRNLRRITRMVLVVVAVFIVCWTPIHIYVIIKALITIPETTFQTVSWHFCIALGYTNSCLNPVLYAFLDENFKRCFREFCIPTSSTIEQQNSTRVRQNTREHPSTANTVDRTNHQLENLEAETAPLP
# PROCEDURE_SUMMARY: Naloxone [3H] opioid receptor binding assay (mu receptor)
# Parameters: species or system rat (male Sprague Dawley)
# RECORDED_CONDITIONS: 20 min, pH 7.4, read-out: % displacement at 10 nM
READOUT_LABEL: inhibition at 0.01 µM (%)
API: value field is a number in %; no unit string.

{"columns": ["MOLECULE", "inhibition at 0.01 µM, %"],
 "data": [
  ["CC(C)OC(=O)CCC(=O)N(CCN1CC[C@@](C)(c2cccc(O)c2)[C@@H](C)C1)C1CCCCC1 (relative stereo)", 79],
  ["CC(=O)NC(CCN1CC[C@@](C)(c2cccc(O)c2)[C@@H](C)C1)c1ccccc1 (stereo in doubt)", 82]
]}

For the next question, use this molecule.
Reported inhibition at 0.01 µM for CCOC(=O)CCC(=O)N(CCN1CC[C@@](C)(c2cccc(O)c2)[C@@H](C)C1)C1CCCCC1 (relative stereo) was 78
